B1: VH:VL chains; a variant is named by its letters at X, in order (parent)
chain 1: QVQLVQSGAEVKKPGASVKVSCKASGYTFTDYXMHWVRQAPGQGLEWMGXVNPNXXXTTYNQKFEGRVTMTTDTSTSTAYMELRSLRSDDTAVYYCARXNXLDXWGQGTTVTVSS
chain 2: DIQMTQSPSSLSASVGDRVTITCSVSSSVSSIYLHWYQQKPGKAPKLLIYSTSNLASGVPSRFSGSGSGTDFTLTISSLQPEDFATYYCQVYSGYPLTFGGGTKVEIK

# Variants of: B1
# Procedure summary: yeast display scFab, FACS + sequencing

Changes	non-specific binding call
VGGTSDVV	no binding
YRAGGDSA	no binding
VRGRGALS	binds
SKGRGAWD	binds
VRRASSVA	binds
DKEGGDVV	no binding
DGGADVGA	binds
YKGKGSWD	binds
YKARGAWS	binds
SEKKSAGA	no binding
FRRRGALD	binds
VTTRADVF	no binding
YKGKGYVD	binds
DTEGDAGD	no binding
FTEEGDGV	no binding
YKRGGAAA	binds
ATGGAALD	no binding
YRGRGYWA	binds
YTKTGDAV	no binding
FKGEGSLY	no binding
YTERGDVD	no binding
VETEGAGA	no binding
DATEDDSA	no binding
FKGKGAVV	binds
YKAGGSAS	binds
FRRRGSLY	binds
YRRRGYSD	binds
YRRRGAVA	binds
DGGENDVY	no binding
DREEGDGS	no binding
DAGGAAGV	no binding
YAARASGF	binds
YEGGGDWV	no binding
YRRRGDGD	binds
SKTKSDAV	no binding
DRGGGDGV	no binding
SKKTGSVD	no binding
YRGRGAVF	binds
DAEATDGA	no binding
YTGTSDWV	no binding
VEEEGSAV	no binding
YRAGSAAA	binds
DATTDSVD	no binding
YRKGGSGY	binds
YRKEGAAA	binds
FRKGGSGV	binds
VEGGGDAA	no binding
YKRGSSVD	binds
YKKGSSLF	binds
AKAGGASD	binds
VKAGDAVY	no binding
DKGEGAAA	no binding
SKKTGDLY	no binding
FTGGAAGD	no binding
SAREGDAV	no binding
VTGGDDWV	no binding
YRGRGYGF	binds
DARGGSSA	no binding
VTKTGDVA	no binding
VKGRADWY	no binding
VEGGGSVD	no binding
FKGKGAVA	binds
